System: RPMI-8226 leukemia
Test: NCI-60 one-dose screen, 48 h
Conditions: 10 µM unless noted
About 83,000 compounds went through this panel and 20% of them were active in at least one assay; those are over-represented in the sample as a whole. Active and inactive are the calls of the source. How the source made its calls: active means growth percent below 10; inactive means the rest.
Answer with one of the outcomes active, inactive

Some solved entries appear below for comparison.
| Compound | Discrete Label |
| --- | --- |
| O=C(O)CNC(=O)CN1C(=O)c2ccccc2C1=O | inactive |
| CCCCCCCCCCCCCCCC(=O)OC[C@@]1(O)C[C@@]23CC[C@@H]4C(C)(C)[C@H](O)CC[C@@]4(C)[C@@H]2CC[C@H]1C3 | inactive |
| C(=N\Nc1ncc(-c2cc3cc4c(cc3o2)OCO4)s1)/c1c[nH]c2ccccc12 | active |
| O=C(NCCN1CCOCC1)OCc1nc2nc(Cl)nc(N3CCOCC3)c2[nH]1 | active |
| CC(N)C(=O)NNc1n[nH]c(=S)n1N (stereo unspecified) | inactive |
| CCCCCCCCCCCC(=O)C(CCCCCCCCCC)C(=O)Nc1ccccc1 (stereo unspecified) | inactive |
| Clc1cc(Cl)cc(N2N=C(c3cccc(Nc4ccncc4)c3)CC2c2ccccc2)c1 (stereo unspecified) | inactive |
| O=C(Nc1cccc(Cl)c1)c1cc(Cl)ccc1O | active |

Recorded test call requested for `COc1cc2nc(-c3ccc(C(F)(F)F)cc3)cc(OCCN3CCC(O)CC3)c2cc1OC` inactive

Recorded test call requested for O=C(OC(OC(=O)c1cc(Cl)cc(Cl)c1)c1cccc2ccccc12)c1ccccc1 (stereo unspecified) inactive

Recorded test call requested for `COc1cc(NCCN(CC(C)C)C2CCCC2)c2ncccc2c1` inactive

###

Test system: SK-OV-3 ovarian
Experiment: NCI-60 one-dose screen, 48 h (100 = growth as untreated, 0 = no growth, -100 = all killed)
Settings: 10 µM unless noted
About 83,000 compounds went through this panel and 20% of them were active in at least one assay; those are over-represented in the sample as a whole. Calls of active or inactive are those of the source. Rule for the calls: active = growth percent below 10; inactive = the rest.
For each entry below, report its growth value.

Past entries and their recorded results:
| Molecule | Result |
| --- | --- |
| N#Cc1ccc(-c2ccc3c(c2)NC(=O)/C3=C\c2ccc[nH]2)cc1 | 62.6% (inactive) |
| O=C(N/N=C/c1cccnc1)c1ccccc1Nc1cccc(C(F)(F)F)c1 | 80.3% (inactive) |
| CC(=O)OCC(=O)C1(O)C(C)CC2C3C=C(C)C4=Cc5c(cnn5-c5ccccc5)CC4(C)C3C(O)CC21C (stereo not given) | 43.1% (inactive) |
| COc1cccc(C(Cc2ccccc2)Nc2ccccc2)c1OC (stereo not given) | 91.3% (inactive) |
| COc1cccc(CCC(=O)c2cc3c(N)c(C(=O)Nc4cccc(Cl)c4C)sc3nc2C)c1 | 32.4% (inactive) |

# batch size: 2; output growth per entry
1. COc1cnccc1-c1nc2ccc3[nH]ncc3c2c2c1CCCC2
2. COc1cc(NCC(O)CN(CC(C)C)C2CCCC2)c2ncccc2c1 (stereo not given)

1: 41.9% (inactive); 2: 93.3% (inactive)

# batch size: 3; output growth per entry
1. Cc1ccc2[nH]c(=S)n(-c3ccc(S(=O)(=O)Nc4ccc(Cl)nn4)cc3)c(=O)c2c1
2. N/C(=N\N=C\c1cc2ccccc2s1)N/N=C/c1cc2ccccc2s1
3. CCCc1cc2c(cc1Br)OCO2

1. 108% (inactive)
2. 94.3% (inactive)
3. 103% (inactive)
